These measurements were taken from patent US20080124811A1.

- target_of_assay: T1, human brain natriuretic peptide, cyclic BNP (1-32c) (human, cyclic: ring closed by a disulfide bond between the two cysteine residues; biotinylated or acridinium-labelled in some assays)
- T1 construct: also called hBNP; hBNP 1-32
- protocol_details: off-rate assay on yeast-displayed scFv; improvement of koff over 3-631-436 wt
Respond with Y for Fold Improvement values of 10 fold and above, N for values below.

# binder, category_label
measured = [
    ("L2 1 (scFv, selected by equilibrium sorting; member of group m17) scFv (VH-linker-VL with V5 and 6His tags), displayed on yeast: QVQLQQPGAELVRPGASVKLSCKASGYTFTSYWMNWVKQRPEQGLEWIGRIDPYDSETHYNQKFKDKAILTVDKSSSTAFVQLTSLTSEDSAVYYCVSDGYWGAGTTVTVSSGPAKELTPLKEAKVSDVVMTQTPLTLSVTTGQPASISCKSSQSLLDSDGKTYLNWLFQRPGESPKLLIYQNTKLESGVPDRFTGSGSGTDFTLKISRVEAEDLGVYYCLQATHFPWTFGGGTKLEIKRAAALESRGPFEGKPIPNPLLGLDSTRTGHHHHHH", "Y"),
    ("L2 4 (scFv, selected by equilibrium sorting; member of group m17) scFv (VH-linker-VL with V5 and 6His tags), displayed on yeast: QVQLQQPGAELVRPGASVKLSCKASGYTFTSYWMNWVKQRPEQGLEWIGRIDPYDSETHYNQKFKDKAILTVDKSSSTAFVQLTSLTSEDSAVYYCVSDGYWGAGTTVTVSSGPAKELTPLKEAKVSDVVMTQTPLTLSVTTGQPASISCKSSQSLLDSDGKTYLNWLFQRPGESPKLLIYHTTKLESGVPDRFTGSGSGTDFTLKISRVEAEDLGVYYCLQATHFPWTFGGGTKLEIKRAAALESRGPFEGKPIPNPLLGLDSTRTGHHHHHH", "N"),
    ("500-2 (scFv, selected by on/off-rate sorting; member of group m17) scFv (VH-linker-VL with V5 and 6His tags), displayed on yeast: QVQLQQPGAELVRPGASVKLSCKASGYTFTSYWMNWVKQRPEQGLEWIGRIDPYDSETHYNQKFKDKAILTVDKSSSTAFVQLTSLTSEDSAVYYCVSDGYWGAGTTVTVSSGPAKELTPLKEAKVSDVVMTQTPLTLSVTTGQPASISCKSSQSLLDSDGKTYLNWLFQRPGESPKLLIYWTTKLESGVPDRFTGSGSGTDFTLKISRVEAEDLGVYYCLQATHFPWTFGGGTKLEIKRAAALESRGPFEGKPIPNPLLGLDSTRTGHHHHHH", "Y"),
]

Q: Confirm if Fold Improvement reported for the binder L2 8 (scFv, selected by equilibrium sorting; member of group m17) scFv (VH-linker-VL with V5 and 6His tags), displayed on yeast: QVQLQQPGAELVRPGASVKLSCKASGYTFTSYWMNWVKQRPEQGLEWIGRIDPYDSETHYNQKFKDKAILTVDKSSSTAFVQLTSLTSEDSAVYYCVSDGYWGAGTTVTVSSGPAKELTPLKEAKVSDVVMTQTPLTLSVTTGQPASISCKSSQSLLDSDGKTYLNWLFQRPGESPKLLIYWMNKLESGVPDRFTGSGSGTDFTLKISRVEAEDLGVYYCLQATHFPWTFGGGTKLEIKRAAALESRGPFEGKPIPNPLLGLDSTRTGHHHHHH is 10 fold or above.
Ans: Y

Q: Dear colleague, could you confirm whether 500-1 (scFv, selected by on/off-rate sorting; member of group m17) scFv (VH-linker-VL with V5 and 6His tags), displayed on yeast: QVQLQQPGAELVRPGASVKLSCKASGYTFTSYWMNWVKQRPEQGLEWIGRIDPYDSETHYNQKFKDKAILTVDKSSSTAFVQLTSLTSEDSAVYYCVSDGYWGAGTTVTVSSGPAKELTPLKEAKVSDVVMTQTPLTLSVTTGQPASISCKSSQSLLDSDGKTYLNWLFQRPGESPKLLIYWMDKLESGVPDRFTGSGSGTDFTLKISRVEAEDLGVYYCLQATHFPWTFGGGTKLEIKRAAALESRGPFEGKPIPNPLLGLDSTRTGHHHHHH has Fold Improvement at or above 10 fold?
Ans: N

Q: Identify whether the reported Fold Improvement of the following binder is 10 fold or greater: L2 7 (scFv, selected by equilibrium sorting; member of group m17) scFv (VH-linker-VL with V5 and 6His tags), displayed on yeast: QVQLQQPGAELVRPGASVKLSCKASGYTFTSYWMNWVKQRPEQGLEWIGRIDPYDSETHYNQKFKDKAILTVDKSSSTAFVQLTSLTSEDSAVYYCVSDGYWGAGTTVTVSSGPAKELTPLKEAKVSDVVMTQTPLTLSVTTGQPASISCKSSQSLLDSDGKTYLNWLFQRPGESPKLLIYWMTKLESGVPDRFTGSGSGTDFTLKISRVEAEDLGVYYCLQATHFPWTFGGGTKLEIKRAAALESRGPFEGKPIPNPLLGLDSTRTGHHHHHH
Ans: Y

Q: Check the entry L2 10 (scFv, selected by off-rate sorting; member of group m17) scFv (VH-linker-VL with V5 and 6His tags), displayed on yeast: QVQLQQPGAELVRPGASVKLSCKASGYTFTSYWMNWVKQRPEQGLEWIGRIDPYDSETHYNQKFKDKAILTVDKSSSTAFVQLTSLTSEDSAVYYCVSDGYWGAGTTVTVSSGPAKELTPLKEAKVSDVVMTQTPLTLSVTTGQPASISCKSSQSLLDSDGKTYLNWLFQRPGESPKLLIYRTNKLESGVPDRFTGSGSGTDFTLKISRVEAEDLGVYYCLQATHFPWTFGGGTKLEIKRAAALESRGPFEGKPIPNPLLGLDSTRTGHHHHHH : does Fold Improvement equal or exceed 10 fold?
Ans: N
